Target: human Glucose-dependent Insulinotropic Polypeptide Receptor (hGIPR) (Homo sapiens)
Sequence (P48546 22-466): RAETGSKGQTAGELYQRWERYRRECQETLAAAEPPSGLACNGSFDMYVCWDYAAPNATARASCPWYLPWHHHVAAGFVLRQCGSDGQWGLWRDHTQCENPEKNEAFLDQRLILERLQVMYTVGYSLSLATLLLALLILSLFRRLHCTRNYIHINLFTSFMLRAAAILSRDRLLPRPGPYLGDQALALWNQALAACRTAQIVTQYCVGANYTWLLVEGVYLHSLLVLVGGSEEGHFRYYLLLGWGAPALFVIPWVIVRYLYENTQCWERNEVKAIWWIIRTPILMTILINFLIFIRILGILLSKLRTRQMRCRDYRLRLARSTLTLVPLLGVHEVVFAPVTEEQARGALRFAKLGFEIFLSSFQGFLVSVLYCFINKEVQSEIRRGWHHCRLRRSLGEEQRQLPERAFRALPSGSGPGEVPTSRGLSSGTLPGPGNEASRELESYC
Experiment: Functional in vitro GIPR antagonist potency assay (intracellular cAMP, HTRF, hGIP stimulation at EC80)
Type: cell-based
Conditions: geometric mean; CHO-K1 cells stably expressing human GIPR, cAMP after hGIP stimulation at EC80
pIC50: −log10 of the molar value.
test.readout: pIC50

The following compounds have reported results that may help.
{"columns": ["compound", "pIC50"],
 "data": [
  ["Cc1cc(-n2ccc(NC(=O)[C@H]3CCCN3C(=O)Nc3ccc(C4CCCC4)cc3)n2)ccc1C(=O)O [Example 45]", 8.08],
  ["Cc1cc(-n2ccc(NC(=O)[C@H]3CCCN3C(=O)Nc3ccc(C(C)C)c(F)c3)n2)ccc1C(N)=O [Example 16]", 6.96],
  ["O=C(Nc1ccn(-c2cc(F)c(O)c(F)c2)n1)[C@H]1CCCN1C(=O)Nc1ccc(C(F)(F)F)cc1 [Example 54]", 7.92]
]}

1 = Cc1cc(-n2ccc(NC(=O)[C@H]3CCCN3C(=O)CNc3ccc(C(F)(F)F)cc3)n2)ccc1C(N)=O [Example 61]
2 = CC(C)c1ccc(NC(=O)N2CCC[C@@H]2C(=O)Nc2ccn(-c3cc(F)c(O)c(F)c3)n2)cc1F [Example 14]
3 = Cc1cc(NC(=O)N2CCC[C@@H]2C(=O)Nc2ccn(-c3ccc(C(=O)O)cc3)n2)ccc1C(C)C [Example 26]
4 = Cc1cc(-n2ccc(NC(=O)[C@H]3CCCN3C(=O)Nc3ccc(C4CC4)c(C)c3)n2)ccc1C(=O)O [Example 39]
5 = Cc1cc(-n2ccc(NC(=O)[C@H]3CCCN3C(=O)Nc3ccc(C4CCC4)cc3)n2)ccc1C(=O)O [Example 42]
IN: Put the compounds in ascending order of pIC50. Arrange the labels as the request states and list them.
OUT: 1, 3, 4, 5, 2

I = O=C(O)c1ccc(-n2ccc(NC(=O)[C@H]3CCCN3C(=O)Nc3ccc(C(F)(F)F)cc3)n2)cc1 [Example 23]
II = Cc1cc(-n2ccc(NC(=O)[C@H]3CCCN3C(=O)Nc3ccc(C(F)(F)F)c(Cl)c3)n2)ccc1C(=O)O [Example 52]
IN: Could you check which of I and II has a smaller value for pIC50? API: response body contains the label of the selected item.
OUT: I
(I: 7.37, II: 7.89)
